Examples of compounds with documented growth inhibition follow.
procedure_details: NCI Yeast Anticancer Drug Screen. Data for the mgt1 strain (AID 153)
study_conditions: S. cerevisiae mgt1 mutant growth inhibition; at 33.0 µM; stronger effect = higher value
The panel holds about 79,000 compounds, 15% with a hit somewhere; the sample as a whole holds those more often.
observable: growth inhibition (%)

INSERT INTO measurements (compound, observable, value_reported) VALUES
  ('CC(=O)CC(c1ccccc1)c1c(O)c2ccccc2oc1=O (stereo not given)', 'growth inhibition', 44),
  ('CC(C)OC(=O)NNc1cc(Cl)ccc1Cl', 'growth inhibition', 21),
  ('Nc1ccc2c(c1)C(=O)c1c(F)cccc1-2', 'growth inhibition', 13),
  ('CC(C)N(CCCNc1c2ccccc2nc2cccc([N+](=O)[O-])c12)C(C)C', 'growth inhibition', 97),
  ('CCN(CC)CCCNc1ccc([N+](=O)[O-])c2nc3ccc(OC)cc3c(NCCCN(CC)CC)c12', 'growth inhibition', 1);

* * *

procedure_details: NCI Yeast Anticancer Drug Screen. Data for the mec2-1 strain (AID 157)
study_conditions: S. cerevisiae mec2-1 strain, at 33.0 µM, stronger effect = higher value
Description: Growth inhibition of yeast strains with defined genetic alterations is measured as a screen for potential anti-cancer activity. Selected strains with alterations in DNA damage repair or cell cycle control were exposed to compounds and growth inhibition was measured relative to vehicle treated controls. The strain used in this assay is mec2-1
The panel holds about 79,000 compounds, 15% with a hit somewhere; the sample as a whole holds those more often.
observable: growth inhibition (%)

INSERT INTO assay_data (compound, observable, readout_unit, value_reported) VALUES
  ('C=COC(=O)N[C@H]1CCc2cc(OC)c(OC)c(OC)c2-c2ccc(SC)c(=O)cc21', 'growth inhibition', '%', 2),
  ('CC1=NN(C(=O)CC(=O)NC(=O)/C=C\c2ccccc2)C(=O)C1N=Nc1ccc([N+](=O)[O-])cc1 (configuration not stated)', 'growth inhibition', '%', 49),
  ('Cc1cc(OCc2nc(N)nc(N)c2-c2ccc(Cl)c(Cl)c2)ccc1[N+](=O)[O-]', 'growth inhibition', '%', 3),
  ('CSc1nc(-c2ccccc2)nc(=[N+]2CCOCC2)s1', 'growth inhibition', '%', 73),
  ('CCN(CC)CCNc1ccc2nc(C)n3c4ccc(OC)cc4c(=O)c1c23', 'growth inhibition', '%', 40),
  ('c1ccc2nc3c(nc2c1)sc1ccccc13', 'growth inhibition', '%', 42),
  ('O=C1c2ccccc2N2OC3(N4CCCC4)CCCCC3C12c1ccccc1 (configuration not stated)', 'growth inhibition', '%', -1),
  ('Oc1c2c(c(O)c3ccccc13)C1(N=N2)c2ccccc2Oc2ccccc21', 'growth inhibition', '%', 97),
  ('Cc1cccc(/C=N/NC(=S)NC2CCCCC2)n1', 'growth inhibition', '%', 11),
  ('c1cc(-c2sc(-c3ccncc3)c(-c3ccncc3)c2-c2ccncc2)ccn1', 'growth inhibition', '%', 46),
  ('OC1(c2ccccc2)C2CC=CC2C1(c1ccccc1)c1ccccc1 (configuration not stated)', 'growth inhibition', '%', 18),
  ('COC(=O)C1CCCCC1C(=O)Nc1ccccc1 (configuration not stated)', 'growth inhibition', '%', -4),
  ('OC(CC(O)(C(F)(F)F)C(F)(F)F)c1ccc(C(O)CC(O)(C(F)(F)F)C(F)(F)F)cc1 (configuration not stated)', 'growth inhibition', '%', 99),
  ('COc1c2c(c3c(c1CCC(=O)O)OC(C)(C)C=C3)OC(C)(C)C=C2', 'growth inhibition', '%', 59),
  ('O=C1C[C@H]2[C@H](c3ccc(Br)cc3)[C@H]3C(=O)c4ccccc4NC(=O)[C@@H]3[C@@]2(O)c2ccccc2N1', 'growth inhibition', '%', 33),
  ('CC(C)OP(=O)(OC(C)C)C(=NCCO)NNc1ccc([N+](=O)[O-])cc1', 'growth inhibition', '%', 20),
  ('CC1C(c2ccccc2)SC(=N)N1C (configuration not stated)', 'growth inhibition', '%', -1),
  ('CCCCCCCCCCCCCCN', 'growth inhibition', '%', 38),
  ('O=[N+]([O-])c1cccc2nc3ccccc3c(NCCCN3CCCCC3)c12', 'growth inhibition', '%', 97),
  ('CCC(C)(C)c1ccc(Oc2ccccc2)c(N)c1', 'growth inhibition', '%', 99),
  ('O=C1c2ccccc2-c2ccc(N=Cc3ccccc3)cc21', 'growth inhibition', '%', 2),
  ('CC(=O)N1C=Cc2c(c(C)c3c([nH]c4ccccc43)c2C)C1', 'growth inhibition', '%', 91),
  ('CC(C)(Br)C(=O)/C=C/c1ccccc1', 'growth inhibition', '%', 28),
  ('O=[N+]([O-])c1ccc2nc(=S)[nH]n2c1', 'growth inhibition', '%', 0),
  ('COc1cc(C2C3=C(COC3=O)Oc3cc4c(cc32)OCO4)cc(OC)c1O (configuration not stated)', 'growth inhibition', '%', 25),
  ('CN1C(=O)C(CC(=O)O)NC1=S (configuration not stated)', 'growth inhibition', '%', 15),
  ('O=C(CCSC1=NCCCN1)c1ccc(F)cc1', 'growth inhibition', '%', 55),
  ('C[n+]1c(-c2ccc(/C=N/NC(=O)c3ccc(C(=O)N/N=C/c4ccc(-c5cn6ccccc6[n+]5C)cc4)cc3)cc2)cn2ccccc21', 'growth inhibition', '%', 41),
  ('COc1ccc(-c2cc(-c3cc(C)cc(Cl)c3O)nc3[nH]c(=S)[nH]c(=S)c23)cc1', 'growth inhibition', '%', 2),
  ('O=C(CCCN1CCC(Nc2ccc(F)cc2)(c2nnnn2C2CCCCC2)CC1)c1ccc(F)cc1', 'growth inhibition', '%', -5),
  ('O=C1C(=O)N(c2ccccc2)[C@@]2(c3ccccc3)C(=Nc3ccccc3)OC(c3ccccc3)=C12', 'growth inhibition', '%', 6),
  ('CCCCCCCCCCCNC=O', 'growth inhibition', '%', 21),
  ('CC1(C)CC(=O)C(C(=O)Nc2cccs2)=C(O)C1', 'growth inhibition', '%', 78),
  ('CC(C)(C)c1ccc2c(c1)C(=O)c1ccccc1C2=O', 'growth inhibition', '%', -9),
  ('CCCCCCCSCC1C(=O)C23C(O)C1CCC2C12COC3(O)C(O)C1C(C)(C)CCC2O (configuration not stated)', 'growth inhibition', '%', 94),
  ('COc1cc2c(cc1O)[C@H](C)C(c1ccccc1OC)O2 (some centres not stated)', 'growth inhibition', '%', 6),
  ('CCC(C)COC(=O)Nc1cccc(Cl)c1 (configuration not stated)', 'growth inhibition', '%', -1);

Origin of values: PubChem BioAssay (NCI)
